Numbers sourced from patent US9120766B2.

experiment: Solubility estimates at ambient temperature (gravimetric or incremental solvent addition); conditions: EtOH, organic solvent or mixture, thermodynamic from solid, solvent EtOH, ambient temperature

| SMILES_RECORD | solubility / mg/mL |
| --- | --- |
| COc1cc(/C=C/c2ccc(O)cc2)cc(OC)c1 | 410 |

###

assay: Solubility estimates at ambient temperature (gravimetric or incremental solvent addition); settings: water, thermodynamic from solid, solvent Water, ambient temperature

| SMILES_RECORD | solubility / µg/mL |
| --- | --- |
| COc1cc(/C=C/c2ccc(O)cc2)cc(OC)c1 | 20 |

###

assay: Solubility estimates at ambient temperature (gravimetric or incremental solvent addition); settings: MTBE, organic solvent or mixture, thermodynamic from solid, solvent MTBE, ambient temperature

| COMPOUND | solubility |
| --- | --- |
| COc1cc(/C=C/c2ccc(O)cc2)cc(OC)c1 [Pterostilbene] | > 200 mg/mL |

###

assay: Solubility estimates at ambient temperature (gravimetric or incremental solvent addition); conditions: isopropanol:water 40:60, aqueous with cosolvent or surfactant or cyclodextrin, thermodynamic from solid, 40:60 isopropanol to water mixture

| SMILES_RECORD | solubility |
| --- | --- |
| COc1cc(/C=C/c2ccc(O)cc2)cc(OC)c1 | ~22 mg/mL |

###

test: Solubility estimates at ambient temperature (gravimetric or incremental solvent addition); conditions: MEK, organic solvent or mixture, thermodynamic from solid, solvent MEK, ambient temperature (Table 1)

| SMILES_RECORD | solubility |
| --- | --- |
| COc1cc(/C=C/c2ccc(O)cc2)cc(OC)c1 | > 200 mg/mL |

###

assay: Solubility estimates at ambient temperature (gravimetric or incremental solvent addition); conditions: EtOAc, organic solvent or mixture, thermodynamic from solid, solvent EtOAc, ambient temperature

| SMILES_RECORD | solubility |
| --- | --- |
| COc1cc(/C=C/c2ccc(O)cc2)cc(OC)c1 | > 201 mg/mL |

###

experiment: Solubility estimates at ambient temperature (gravimetric or incremental solvent addition); settings: water:IPA 60:40, aqueous with cosolvent or surfactant or cyclodextrin, thermodynamic from solid, solvent Water:IPA 60:40, ambient temperature
MEASUREMENT_TYPE: solubility (mg/mL)

| SMILES_RECORD | MEASUREMENT_TYPE | READOUT_VALUE |
| --- | --- | --- |
| COc1cc(/C=C/c2ccc(O)cc2)cc(OC)c1 | solubility | 22 |

###

experiment: physchem; conditions: aqueous with cosolvent or surfactant or cyclodextrin, thermodynamic from solid

| SMILES_RECORD | solubility |
| --- | --- |
| C1CNCCN1 | > 324 mg/mL |

###

assay: Solubility estimates at ambient temperature (gravimetric or incremental solvent addition); conditions: water:IPA 55:45, aqueous with cosolvent or surfactant or cyclodextrin, thermodynamic from solid, solvent Water:IPA 55:45, ambient temperature
MEASUREMENT_TYPE: solubility (mg/mL)

| COMPOUND | READOUT_VALUE |
| --- | --- |
| COc1cc(/C=C/c2ccc(O)cc2)cc(OC)c1 [Pterostilbene] | 22 |

###

assay: Solubility estimates at ambient temperature (gravimetric or incremental solvent addition); conditions: isopropanol/water with water content 70% and higher, aqueous with cosolvent or surfactant or cyclodextrin, thermodynamic from solid

| MOLECULE | solubility |
| --- | --- |
| COc1cc(/C=C/c2ccc(O)cc2)cc(OC)c1 [Pterostilbene] | ≤ 2000 µg/mL |

###

assay: Solubility estimates at ambient temperature (gravimetric or incremental solvent addition); details: water:ethanol 50:50 v/v, aqueous with cosolvent or surfactant or cyclodextrin, thermodynamic from solid, solvent system Water:ethanol 50:50 v/v, ambient temperature
MEASUREMENT_TYPE: solubility

| COMPOUND | READOUT_VALUE |
| --- | --- |
| COc1cc(/C=C/c2ccc(O)cc2)cc(OC)c1 [Pterostilbene] | 54 mg/mL |
